target: WRN helicase (aa N517-P1238) (Homo sapiens, UniProt Q14191); construct: The core helicase motif of the WRN protein (aa N517-P1238) was produced for this assay; His (N); ZZ (N); 3C protease cleavage site (N); virus and BIICs made in SF9); test: WRN ATPase assay (DNA dependent ATP hydrolysis, ADP-Glo); conditions: 3 hours pre-incubation, 300 micromolar ATP, FLAP26 DNA; geometric mean of at least 2
Sequence (Q14191 517-1238): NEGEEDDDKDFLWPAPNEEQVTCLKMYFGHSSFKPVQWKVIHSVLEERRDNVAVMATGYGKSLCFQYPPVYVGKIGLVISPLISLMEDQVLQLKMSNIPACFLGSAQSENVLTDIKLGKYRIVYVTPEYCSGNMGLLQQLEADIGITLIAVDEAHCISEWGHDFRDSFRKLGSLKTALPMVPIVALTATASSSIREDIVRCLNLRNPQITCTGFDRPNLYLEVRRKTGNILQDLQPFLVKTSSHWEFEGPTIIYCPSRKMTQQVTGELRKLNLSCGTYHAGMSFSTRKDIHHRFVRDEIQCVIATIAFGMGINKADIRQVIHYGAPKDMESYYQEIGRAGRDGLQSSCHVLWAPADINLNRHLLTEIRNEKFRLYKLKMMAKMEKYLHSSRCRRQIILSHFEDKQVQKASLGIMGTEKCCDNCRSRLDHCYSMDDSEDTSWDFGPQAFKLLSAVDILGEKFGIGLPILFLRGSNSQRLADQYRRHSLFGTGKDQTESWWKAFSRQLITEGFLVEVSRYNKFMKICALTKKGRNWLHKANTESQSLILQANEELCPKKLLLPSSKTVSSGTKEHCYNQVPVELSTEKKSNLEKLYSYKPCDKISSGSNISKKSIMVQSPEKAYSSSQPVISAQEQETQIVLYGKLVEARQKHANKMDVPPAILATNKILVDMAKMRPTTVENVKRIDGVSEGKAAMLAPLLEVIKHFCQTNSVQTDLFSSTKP
pIC50: −log10 of the molar value.
Classification field: T = pIC50 at or over 6; F = pIC50 under 6.

Worked set:
| Molecule | Category |
| --- | --- |
| CC(=O)N1CCN(c2c(C)n(CC(=O)Nc3ccc(C(F)(F)F)cc3)c3nc(C4=CCOCC4)nn3c2=O)C[C@H]1C [Example 63] | T |
| CC(=O)N1CCN(c2c(C)n(CC(=O)Nc3ccc(C(F)(F)F)c(F)c3)c3nc(C4=CCOCC4)nn3c2=O)CC1 [Example 90] | T |
| Cc1c(N2CCN(C(=O)OCc3ccccc3)CC2)c(=O)n2nc(C3=CCOCC3)nc2n1CC(=O)Nc1ccc(C(F)(F)F)cc1 [Example 65] | F |

INPUT: Given the entry Cc1nnc(C(=O)N2CCN(c3c(C)n(CC(=O)Nc4ccc(C(F)(F)F)cc4)c4nc(C5=CCOCC5)nn4c3=O)CC2)[nH]1 [Example 159] , answer whether its pIC50 meets or surpasses 6.
OUTPUT: T

INPUT: Given the entry COc1cc(F)cc(C(=O)N2CCN(c3c(C)n(CC(=O)Nc4ccc(C(F)(F)F)cc4)c4nc(C5=CCOCC5)nn4c3=O)CC2)c1N [Example 153] , answer whether its pIC50 meets or surpasses 6.
OUTPUT: T

INPUT: Given the entry CCc1c(N2CCN(C(=O)c3ccnc(C)c3O)CC2)c(=O)n2nc(C3=CCOCC3)nc2n1CC(=O)Nc1ccc(C(F)(F)F)cc1C [Example 47] , answer whether its pIC50 meets or surpasses 6.
OUTPUT: T

INPUT: Given the entry Cc1c(N2CCN(C(=O)c3cc(F)ccc3N)CC2)c(=O)n2nc(C3=CCOCC3)nc2n1CC(=O)Nc1ccc(C(F)(F)F)cc1 [Example 157] , answer whether its pIC50 meets or surpasses 6.
OUTPUT: T

INPUT: Given the entry CC(=O)N1CCN(c2c(C)n(CC(=O)Nc3cnc(C(F)(F)F)cc3Cl)c3nc(C4=CCOCC4)nn3c2=O)CC1 [Example 99] , answer whether its pIC50 meets or surpasses 6.
OUTPUT: F

INPUT: Given the entry COc1cccc(C(=O)N2CCN(c3c(C)n(CC(=O)Nc4ccc(C(F)(F)F)cc4)c4nc(C5=CCOCC5)nn4c3=O)CC2)c1N [Example 155] , answer whether its pIC50 meets or surpasses 6.
OUTPUT: T

---

system: DLD1-WRN-KO cells; experiment: Proliferation assay DLD1-WRN-KO (CellTiterGlo, off-target effects); assay type: cell-based; settings: 96 hours, geometric mean of at least 2
Measurement Name: GI50

// solved cases for GI50 follow
| Item Smiles | GI50 |
| --- | --- |
| Cc1cccc(O)c1C(=O)N1CCN(c2c(C)n(CC(=O)Nc3ccc(C(F)(F)F)cc3)c3nc(C4=CCOCC4)nn3c2=O)CC1 | > 10 µM |
| Cc1cc(C(=O)N2CCN(c3c(C)n(CC(=O)Nc4ccc(C(F)(F)F)cc4)c4nc(C5=CCOCC5)nn4c3=O)CC2)c(O)cn1 | > 10 µM |

# input for lookup
INPUT: // lookup GI50 for CC(=O)N1CCN(c2c(C)n(CC(=O)Nc3ccc(C(F)(F)F)cc3)c3nc(N4CCCCC4)nn3c2=O)CC1
OUTPUT: > 10 µM

---

system: DLD1-WRN-KO cells; experiment: Proliferation assay DLD1-WRN-KO (CellTiterGlo, off-target effects); format: cell-based; settings: 96 hours, geometric mean of at least 2
Measurement Name: GI50

// solved cases for GI50 follow
| Item Smiles | System Tested | GI50 |
| --- | --- | --- |
| Cc1c(N2CCN(C(=O)Nc3nccs3)CC2)c(=O)n2nc(C3=CCOCC3)nc2n1CC(=O)Nc1ccc(C(F)(F)F)cc1 | DLD1-WRN-KO cells | > 10 µM |
| CC(=O)N1CCN(c2c(C)n(CC(=O)Nc3ccc(Cl)c(C(F)(F)F)c3)c3nc(C4=CCN(C(=O)OC(C)(C)C)CC4)nn3c2=O)CC1 | DLD1-WRN-KO cells | 0.6 µM |
| CC(=O)N1CCN(c2c(C)n(CC(=O)Nc3ccc(C(F)(F)F)cc3)c3nc(C4=CCOCC4)nn3c2=O)CC1 | DLD1-WRN-KO cells | > 10 µM |
| CCc1ccc(NC(=O)Cn2c(C)c(N3CCN(C(C)=O)CC3)c(=O)n3nc(C4=CCOCC4)nc23)cc1F | DLD1-WRN-KO cells | > 10 µM |
| CCc1ccc(NC(=O)Cn2c(C)c(N3CCN(C(C)=O)CC3)c(=O)n3nc(C4=CCOCC4)nc23)cc1C(F)(F)F | DLD1-WRN-KO cells | > 10 µM |

INPUT: // lookup GI50 for CC(=O)N1CCN(c2c(C)n(CC(=O)Nc3ccc(Cl)c(Cl)c3)c3nc(-c4ccc(CN(C)C(=O)CCN=[N+]=[N-])cc4)nn3c2=O)CC1
OUTPUT: > 10 µM

---

target: WRN helicase (aa N517-P1238) (Homo sapiens, UniProt Q14191); construct: The core helicase motif of the WRN protein (aa N517-P1238) was produced for this assay; His (N); ZZ (N); 3C protease cleavage site (N); virus and BIICs made in SF9); experiment: WRN ATPase assay (DNA dependent ATP hydrolysis, ADP-Glo); conditions: 3 hours pre-incubation, 300 micromolar ATP, FLAP26 DNA; geometric mean of at least 2
Each entry below carries its recorded pIC50.
pIC50 (log units): -log10 of the concentration in mol/L.

// solved cases for pIC50 follow
| Compound | Measurement Name | Meas Value |
| --- | --- | --- |
| CCc1c(N2CCN(C(=O)C3CCOC3)CC2)c(=O)n2nc(C3=CCCCO3)nc2n1CC(=O)Nc1ccc(C(F)(F)F)cc1 (stereo not drawn) [Example 56] | pIC50 | 7.00 |
| CC(=O)N1CCN(c2c(C)n(CC(=O)Nc3ccc(C(F)(F)F)cc3)c3nc(N4CCC5CC54)nn3c2=O)CC1 (stereo not drawn) | pIC50 | 5.70 |

INPUT: // lookup pIC50 for Cc1c(N2CCN(C(=O)c3cnccc3O)CC2)c(=O)n2nc(C3=CCOCC3)nc2n1CC(=O)Nc1ccc(C(F)(F)F)cc1
OUTPUT: 6.70

INPUT: // lookup pIC50 for CC(=O)N1CCN(c2c(C)n(CC(=O)Nc3ccc(Cl)cc3)c3nc(N4CCN(C(=O)OC(C)(C)C)CC4)nn3c2=O)CC1
OUTPUT: 6.52

INPUT: // lookup pIC50 for CC(=O)N1CCN(c2c(C)n(CC(=O)Nc3ccc(C(F)(F)F)nc3Cl)c3nc(N4CCCC(F)C4)nn3c2=O)CC1 (stereo not drawn)
OUTPUT: 5.70

INPUT: // lookup pIC50 for Cc1c(N2CCN(C(=O)c3n[nH]c4ccccc34)CC2)c(=O)n2nc(C3=CCOCC3)nc2n1CC(=O)Nc1ccc(C(F)(F)F)cc1
OUTPUT: 7.00

---

Each entry below carries its recorded GI50.
system: DLD1-WRN-KO cells; experiment: Proliferation assay DLD1-WRN-KO (CellTiterGlo, off-target effects); format: cell-based; settings: 96 hours, geometric mean of at least 2

// solved cases for GI50 follow
| Molecule | GI50 |
| --- | --- |
| CCc1c(N2CCN(C(=O)c3c(O)ccc4ccncc34)CC2)c(=O)n2nc(C3=CCOCC3)nc2n1CC(=O)Nc1ccc(C(F)(F)F)cc1C [Example 40] | > 10 µM |
| CC(=O)N1CCN(c2c(C)n(CC(=O)Nc3cc(Cl)c(C(F)(F)F)cc3C)c3nc(C4=CCOCC4)nn3c2=O)CC1 [Example 108] | > 10 µM |
| Cc1c(N2CCN(C(=O)c3ccc(F)c(F)c3O)CC2)c(=O)n2nc(N3CCOCC3)nc2n1CC(=O)Nc1ccc(C(F)(F)F)cc1 [Example 150] | > 10 µM |

INPUT: // lookup GI50 for CC(=O)N1CCN(c2c(C)n(CC(=O)Nc3ccc(Cl)cc3)c3nc(N4CCN(C(=O)OC(C)(C)C)CC4)nn3c2=O)CC1 [Example 158]
OUTPUT: 1 µM

INPUT: // lookup GI50 for Cc1c(N2CCN(C(=O)c3ccc(F)c(F)c3O)CC2)c(=O)n2nc(C3=CCOCC3)nc2n1CC(=O)Nc1ccc(C(F)(F)F)cc1 [Example 16]
OUTPUT: > 10 µM

INPUT: // lookup GI50 for COc1cccc(C(=O)N2CCN(c3c(C)n(CC(=O)Nc4ccc(C(F)(F)F)cc4)c4nc(C5=CCOCC5)nn4c3=O)CC2)c1N [Example 155]
OUTPUT: > 10 µM
